Give viability at 48 h, 238 µM for every item shown.
Assay: MTT relative viability, PhTERT-SEAP (hTERT-BJ1) cells
Settings: human, hTERT-BJ1 cells, stable PhTERT-SEAP reporter clone
Respond with the figure and its unit, in that order.

[ask] # viability at 48 h, 238 µM lookup, item CC(Cl)C(=O)Nc1ccc(NC(=O)C(C)Cl)c2c1C(=O)c1ccccc1C2=O (centres unmarked) [VI9]
[reply] 48%

[ask] # viability at 48 h, 238 µM lookup, item O=C(CCCl)Nc1ccc(NC(=O)CCCl)c2c1C(=O)c1ccccc1C2=O [VI7]
[reply] 60%

---

Assay: MTT relative viability, PhTERT-SEAP (hTERT-BJ1) cells
Conditions: human, hTERT-BJ1 cells
measure_name: viability at 48 h, 2.8 µM (%)
// return numeric value only (unit: %, not printed)

[ask] # viability at 48 h, 2.8 µM lookup, item CC(C)CNc1cccc2c1C(=O)c1cccc(NCC(C)C)c1C2=O
[reply] 110

[ask] # viability at 48 h, 2.8 µM lookup, item CCCCNc1cccc2c1C(=O)c1cccc(NCCCC)c1C2=O
[reply] 109

---

Experiment: MTT relative viability, PhTERT-SEAP (hTERT-BJ1) cells
Conditions: human
measure_name: viability at 48 h, 33 µM (%)
// return numeric value only (unit: %, not printed)

[ask] # viability at 48 h, 33 µM lookup, item CCNc1cccc2c1C(=O)c1cccc(NCC)c1C2=O [IVa, 1,5-Bis(ethylamino)anthraquinone]
[reply] 97

---

Experiment: MTT relative viability, PhTERT-SEAP (hTERT-BJ1) cells
Details: human, hTERT-BJ1 cells
Give viability at 48 h, 31 µM for every item shown.
// return numeric value only (unit: %, not printed)

[ask] # viability at 48 h, 31 µM lookup, item CCCNc1cccc2c1C(=O)c1cccc(NCCC)c1C2=O
[reply] 93

[ask] # viability at 48 h, 31 µM lookup, item CC(C)Nc1cccc2c1C(=O)c1cccc(NC(C)C)c1C2=O
[reply] 93

---

Experiment: MTT relative viability, PhTERT-SEAP (H1299) cells
Settings: human
Give viability at 48 h, 285 µM for every item shown.

[ask] # viability at 48 h, 285 µM lookup, item CCCCNc1cccc2c1C(=O)c1cccc(NCCCC)c1C2=O [IVj, 1,5-Bis(butylamino)anthraquinone]
[reply] 81%

[ask] # viability at 48 h, 285 µM lookup, item CC(C)CNc1cccc2c1C(=O)c1cccc(NCC(C)C)c1C2=O
[reply] 80%

---

Give viability at 48 h, 210 µM for every item shown.
Assay: MTT relative viability, PhTERT-SEAP (hTERT-BJ1) cells
Settings: human
// return numeric value only (unit: %, not printed)

[ask] # viability at 48 h, 210 µM lookup, item Cc1ccccc1C(=O)Oc1cccc2c1C(=O)c1cccc(OC(=O)c3ccccc3C)c1C2=O
[reply] 39

[ask] # viability at 48 h, 210 µM lookup, item O=C(Cc1ccccc1)Oc1cccc2c1C(=O)c1cccc(OC(=O)Cc3ccccc3)c1C2=O
[reply] 64

[ask] # viability at 48 h, 210 µM lookup, item Cc1cccc(C(=O)Oc2cccc3c2C(=O)c2cccc(OC(=O)c4cccc(C)c4)c2C3=O)c1
[reply] 47

[ask] # viability at 48 h, 210 µM lookup, item Cc1ccc(C(=O)Oc2cccc3c2C(=O)c2cccc(OC(=O)c4ccc(C)cc4)c2C3=O)cc1
[reply] 56

[ask] # viability at 48 h, 210 µM lookup, item O=C1c2cccc(SCCCCCCO)c2C(=O)c2cccc(SCCCCCCO)c21 [IIe, 1,5-Bis(hydroxyhexylthio)-anthraquinone]
[reply] 40

---

Tested on: hepatitis B virus transfected hepatoma cell lines, HepG 2.2.15 cells
Experiment: Cytotoxicity assay, 2.2.15 cells
Type: cell-based, human
Conditions: Homo sapiens, HepG2.2.15; 48 h of drug exposure
measure_name: IC50

[ask] Param readout= IC50; system= hepatitis B virus transfected hepatoma cell lines, HepG 2.2.15 cells; entry= CC(Cl)C(=O)Nc1ccc(NC(=O)C(C)Cl)c2c1C(=O)c1ccccc1C2=O (stereo not shown) [VI9] ; returns value.
[reply] > 20 µM

[ask] Param readout= IC50; system= hepatitis B virus transfected hepatoma cell lines, HepG 2.2.15 cells; entry= O=C1c2ccccc2C(=O)c2c(NC(=O)[C@@H]3C[C@H]3c3ccccc3)ccc(NC(=O)[C@@H]3C[C@H]3c3ccccc3)c21 (relative stereo) [VI27] ; returns value.
[reply] 19.5 µM

[ask] Param readout= IC50; system= hepatitis B virus transfected hepatoma cell lines, HepG 2.2.15 cells; entry= O=C(Cc1ccc(F)cc1)Nc1ccc(NC(=O)Cc2ccc(F)cc2)c2c1C(=O)c1ccccc1C2=O [VI32] ; returns value.
[reply] > 20 µM

[ask] Param readout= IC50; system= hepatitis B virus transfected hepatoma cell lines, HepG 2.2.15 cells; entry= O=C1c2ccccc2C(=O)c2c(NC(=O)C3CCCCC3)ccc(NC(=O)C3CCCCC3)c21 [VI17] ; returns value.
[reply] > 20 µM

[ask] Param readout= IC50; system= hepatitis B virus transfected hepatoma cell lines, HepG 2.2.15 cells; entry= CCN(CC)C(C)C(=O)Nc1ccc(NC(=O)C(C)N(CC)CC)c2c1C(=O)c1ccccc1C2=O (stereo not shown) [VI35] ; returns value.
[reply] 8.57 µM

[ask] Param readout= IC50; system= hepatitis B virus transfected hepatoma cell lines, HepG 2.2.15 cells; entry= O=C(CCCl)Nc1ccc(NC(=O)CCCl)c2c1C(=O)c1ccccc1C2=O [VI7] ; returns value.
[reply] > 20 µM

[ask] Param readout= IC50; system= hepatitis B virus transfected hepatoma cell lines, HepG 2.2.15 cells; entry= CCN(CC)CC(=O)Nc1ccc(NC(=O)CN(CC)CC)c2c1C(=O)c1ccccc1C2=O [VI33] ; returns value.
[reply] 13 µM

[ask] Param readout= IC50; system= hepatitis B virus transfected hepatoma cell lines, HepG 2.2.15 cells; entry= O=C1c2c(O)ccc(O)c2C(=O)c2c(NCCNCCO)ccc(NCCNCCO)c21 [Mitoxantrone, reference compound] ; returns value.
[reply] 0.4 µM

[ask] Param readout= IC50; system= hepatitis B virus transfected hepatoma cell lines, HepG 2.2.15 cells; entry= O=C1c2cccc(NCCc3ccccc3)c2C(=O)c2cccc(NCCc3ccccc3)c21 [IVs, 1,5-Bis(phenylethylamino)-anthraquinone] ; returns value.
[reply] > 20 µM

[ask] Param readout= IC50; system= hepatitis B virus transfected hepatoma cell lines, HepG 2.2.15 cells; entry= O=C(Nc1ccc(NC(=O)c2cccs2)c2c1C(=O)c1ccccc1C2=O)c1cccs1 [VI22] ; returns value.
[reply] > 20 µM

[ask] Param readout= IC50; system= hepatitis B virus transfected hepatoma cell lines, HepG 2.2.15 cells; entry= CC(=O)Nc1ccc(NC(C)=O)c2c1C(=O)c1ccccc1C2=O [VI3, 1,4-Bisacetamido-9,10-anthracenedione] ; returns value.
[reply] > 20 µM

[ask] Param readout= IC50; system= hepatitis B virus transfected hepatoma cell lines, HepG 2.2.15 cells; entry= CC(C)CNc1cccc2c1C(=O)c1cccc(NCC(C)C)c1C2=O ; returns value.
[reply] > 20 µM

[ask] Param readout= IC50; system= hepatitis B virus transfected hepatoma cell lines, HepG 2.2.15 cells; entry= NCCCCCNc1cccc2c1C(=O)c1c(NCCCCCN)cccc1C2=O [Vm, 1,8-Bis(aminopentylamino)-anthraquinone] ; returns value.
[reply] 1.29 µM

[ask] Param readout= IC50; system= hepatitis B virus transfected hepatoma cell lines, HepG 2.2.15 cells; entry= O=C(CCl)Nc1ccc(NC(=O)CCl)c2c1C(=O)c1ccccc1C2=O [VI1] ; returns value.
[reply] > 20 µM

[ask] Param readout= IC50; system= hepatitis B virus transfected hepatoma cell lines, HepG 2.2.15 cells; entry= NCCCCCNc1cccc2c1C(=O)c1cccc(NCCCCCN)c1C2=O [IVm, 1,5-Bis(aminopentylamino)-anthraquinone] ; returns value.
[reply] > 20 µM

[ask] Param readout= IC50; system= hepatitis B virus transfected hepatoma cell lines, HepG 2.2.15 cells; entry= CN(C)CCNc1cccc2c1C(=O)c1cccc(NCCN(C)C)c1C2=O [IVd] ; returns value.
[reply] 0.13 µM

---

Give Relative MTT viability (%) for every item shown.
Tested on: non-small-cell lung cancer cells H1299
Assay: MTT relative viability, PhTERT-SEAP (H1299) cells
Settings: 1.9 μM, PhTERT-SEAP(hTERT-H1299)
// return numeric value only (unit: %, not printed)

[ask] # Relative MTT viability (%) lookup, item O=C(Nc1ccc(NC(=O)c2ccccc2Cl)c2c1C(=O)c1ccccc1C2=O)c1ccccc1Cl [VI2]
[reply] 114

[ask] # Relative MTT viability (%) lookup, item O=C(Nc1ccc(NC(=O)c2ccc(Cl)cc2)c2c1C(=O)c1ccccc1C2=O)c1ccc(Cl)cc1 [VI16]
[reply] 89

[ask] # Relative MTT viability (%) lookup, item O=C(Nc1ccc(NC(=O)c2ccc(F)cc2F)c2c1C(=O)c1ccccc1C2=O)c1ccc(F)cc1F [VI18]
[reply] 87

[ask] # Relative MTT viability (%) lookup, item O=C(Nc1ccc(NC(=O)c2cccc(Cl)c2)c2c1C(=O)c1ccccc1C2=O)c1cccc(Cl)c1 [VI5]
[reply] 95
